System: Cannabinoid receptor 1 (Homo sapiens) | Read-out: pKi
Sequence (P21554 whole entry): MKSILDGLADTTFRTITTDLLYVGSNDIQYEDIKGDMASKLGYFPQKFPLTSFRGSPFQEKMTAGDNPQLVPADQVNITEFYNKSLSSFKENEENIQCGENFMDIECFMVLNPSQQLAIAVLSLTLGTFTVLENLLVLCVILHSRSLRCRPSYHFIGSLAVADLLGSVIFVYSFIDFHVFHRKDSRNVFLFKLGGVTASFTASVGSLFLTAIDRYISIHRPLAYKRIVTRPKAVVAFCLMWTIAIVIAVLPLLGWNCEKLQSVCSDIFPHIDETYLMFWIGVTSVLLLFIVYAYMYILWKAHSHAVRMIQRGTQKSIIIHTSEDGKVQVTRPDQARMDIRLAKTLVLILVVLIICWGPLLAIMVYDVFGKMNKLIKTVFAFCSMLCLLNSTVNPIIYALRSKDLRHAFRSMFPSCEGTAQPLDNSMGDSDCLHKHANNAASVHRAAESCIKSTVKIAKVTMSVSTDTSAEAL
pKi: −log10 of the molar value.

// solved cases for pKi follow
CCCCCn1cc(C(=O)NC2CCCCC2)c(=O)cc1C(C)(C)C    < 5.52
CCCCCn1cc(C(=O)N[C@@H]2CCCc3ccccc32)c(=O)cc1-c1ccccc1    6.88
CCCCCn1cc(C(=O)NC23CC4CC(CC(C4)C2)C3)c(=O)cc1-c1ccc(OC)cc1    6.42
CCCCCn1cc(C(=O)Nc2cccc(C(F)(F)F)c2)c(=O)cc1-c1ccc(Cl)cc1    < 6.00
CCCCCn1cc(C(=O)Nc2cccc(C(F)(F)F)c2)c(=O)cc1-c1ccccc1    < 5.52
CCCCCn1cc(C(=O)NC2CCCCC2)c(=O)cc1-c1ccc(Cl)cc1    < 6.00

Here is the next item to consider.
Please report the recorded pKi for "CCCCCn1cc(C(=O)NC23CC4CC(CC(C4)C2)C3)c(=O)cc1C(C)(C)C" .
< 5.52
